Collected viability at 72 h, 6.25 uM values appear next to each entry.
Assay: Cytotoxicity assay (CellTiter-Glo, 72 h), SKOV-3
Type: cell-based, human
Settings: human, SKOV-3 ovarian adenocarcinoma cells, conc 6.25 uM; raw replicate data; read-out: SKOV3 viability (%)
Experimental: Jurkat cells were cultured in RPMI1640 medium supplemented with 10% foetal bovine serum, penicillin (50 U/ml), streptomycin (50 μg/ml), and Glutamax. SKOV-3 cells were cultured in DMEM medium supplemented with 10% fetal bovine serum, penicillin (50 U/ml), and streptomycin (50 μg/ml). […] Cell viabilities were measured using a CellTiter-Glo luminescent cell viability assay and EnVision multilabel plate reader.
Entry format: amount then unit.

Here are 2 compounds together with their reported answers.
>>> meas_value("COC1CC2CCC(C)C(O)(O2)C(=O)C(=O)N2CCCCC2C(=O)OC(C(C)CC2CCC(O)C(OC)C2)CC(=O)C(C)C=C(C)C(O)CC(=O)C(C)C=C(C)C=CC=CC=C1C (stereo not drawn) [Compound 14]")
"78.2%"
>>> meas_value("CO[C@@H]1/C=C/C=C/[C@@H](C)C[C@@H](C)C(=O)C[C@H](O)/C(C)=C/[C@@H](C)C(=O)C[C@@H]([C@H](C)C[C@@H]2CC[C@@H](O)[C@H](OC)C2)OC(=O)[C@@H]2CCCCN2C(=O)C(=O)[C@]2(O)O[C@@H](CC[C@H]2C)C1 [Compound 9]")
"70.2%"

(Q) So what's the measured viability at 72 h, 6.25 uM for this one? CO[C@@H]1C[C@H](C[C@@H](C)[C@@H]2CC(=O)[C@H](C)/C=C(\C)[C@@H](O)[C@@H](OC)C(=O)[C@H](C)C[C@H](C)/C=C/C=C/C=C(\C)[C@H](O)C[C@@H]3CC[C@@H](C)[C@@](O)(O3)C(=O)C(=O)N3CCCC[C@H]3C(=O)O2)CC[C@H]1O [Compound 17, (16R)-16-O-demethyl rapamycin]
(A) 66.2%

(Q) So what's the measured viability at 72 h, 6.25 uM for this one? COC1CC2CCC(C)C(O)(O2)C(=O)C(=O)N2CCCCC2C(=O)OC(C(C)CC2CCC(O)C(OC)C2)CC(=O)C(C)C=C(C)C(O)C(OC)C(=O)C(C)CC(C)C=CCCC=C1C (stereo not drawn) [Compound 15, 19,20-dihidro-rapamycin]
(A) 65.8%

(Q) So what's the measured viability at 72 h, 6.25 uM for this one? CO[C@H]1C[C@@H]2CC[C@@H](C)[C@@](O)(O2)C(=O)C(=O)N2CCCC[C@H]2C(=O)O[C@H]([C@H](C)C[C@@H]2CC[C@@H](O)[C@H](OC)C2)CC(=O)[C@H](C)/C=C(\C)[C@@H](O)CC(=O)[C@H](C)C[C@H](C)/C=C/C=C(C)/C=C/1C [Compound 2, 27-demethoxy-19-methyl rapamycin]
(A) 102%

(Q) So what's the measured viability at 72 h, 6.25 uM for this one? CO[C@H]1C[C@@H]2CC[C@@H](C)[C@@](O)(O2)C(=O)C(=O)N2CCCC[C@H]2C(=O)O[C@H]([C@H](C)C[C@@H]2CC[C@@H](O)[C@H](OC)C2)CC(=O)[C@H](C)/C=C(\C)[C@@H](O)[C@@H](OC)C(=O)[C@H](C)C[C@H](C)/C=C/C=C/C=C/1C [Compound 1, rapamycin, reference compound]
(A) 63.1%

(Q) So what's the measured viability at 72 h, 6.25 uM for this one? COC1CC2CCC(C)C(O)(O2)C(=O)C(=O)N2CCCCC2C(=O)OC(C(C)CC2CCC(O)C(OC)C2)CCC(C)C=C(C)C(O)C(OC)C(=O)C(C)CC(C)C=CC=CC=C1C (stereo not drawn) [Compound 16, 32-desketorapamycin]
(A) 57%

(Q) So what's the measured viability at 72 h, 6.25 uM for this one? COC1CC2CCC(C)C(O)(O2)C(=O)C(=O)N2CCCCC2C(=O)OC(C(C)CC2CCC(O)C(OC)C2)CC(O)CC(=O)C(C)C=C(C)C(O)CC(=O)C(C)CC(C)C=CC=CC=C1C (stereo not drawn) [Compound 13]
(A) 76.1%

(Q) So what's the measured viability at 72 h, 6.25 uM for this one? CO[C@H]1C[C@@H]2CC[C@@H](C)[C@@](O)(O2)C(=O)C(=O)N2CCCC[C@H]2C(=O)O[C@H]([C@H](C)C[C@@H]2CC[C@@H](O)[C@H](OC)C2)CC(=O)[C@H](C)/C=C(\C)[C@@H](O)CC[C@H](C)/C=C/C=C/C=C/1C [Compound 7]
(A) 61.9%

* * *

test: Cytotoxicity assay (CellTiter-Glo, 72 h), Jurkat; assay type: cell-based; conditions: human, Jurkat cells (T lymphoma), conc 0.0976562 uM, raw data (replicates)
Collected viability at 72 h, 0.0976562 uM values appear next to each entry.
Provide the reading as a plain figure in %.

>>> meas_value("COC1CC2CCC(C)C(O)(O2)C(=O)C(=O)N2CCCCC2C(=O)OC(C(C)CC2CCC(O)C(OC)C2)CCC(C)C=C(C)C(O)C(OC)C(=O)C(C)CC(C)C=CC=CC=C1C (stereo not drawn)")
24

(Q) So what's the measured viability at 72 h, 0.0976562 uM for this one? COC1CC2CCC(C)C(O)(O2)C(=O)C(=O)N2CCCCC2C(=O)OC(C(C)CC2CCC(O)C(OC)C2)CC(=O)C(C)C=C(C)C(O)CC(=O)C(C)C=C(C)C=CC=CC=C1C (stereo not drawn)
(A) 97.1

(Q) So what's the measured viability at 72 h, 0.0976562 uM for this one? CO[C@@H]1C[C@H](C[C@@H](C)[C@@H]2CC(=O)[C@H](C)/C=C(\C)[C@@H](O)[C@@H](OC)C(=O)[C@H](C)C[C@H](C)/C=C/C=C/C=C(\C)[C@H](O)C[C@@H]3CC[C@@H](C)[C@@](O)(O3)C(=O)C(=O)N3CCCC[C@H]3C(=O)O2)CC[C@H]1O [Compound 17, (16R)-16-O-demethyl rapamycin]
(A) 39.6

(Q) So what's the measured viability at 72 h, 0.0976562 uM for this one? COC1CC2CCC(C)C(O)(O2)C(=O)C(=O)N2CCCCC2C(=O)OC(C(C)CC2CCC(O)C(OC)C2)CC(=O)C(C)C=C(C)C(O)C(OC)C(=O)C(C)CC(C)C=CCCC=C1C (stereo not drawn)
(A) 83.5

(Q) So what's the measured viability at 72 h, 0.0976562 uM for this one? COC1CC2CCC(C)C(O)(O2)C(=O)C(=O)N2CCCCC2C(=O)OC(C(C)CC2CCC(O)C(OC)C2)CC(O)CC(=O)C(C)C=C(C)C(O)CC(=O)C(C)CC(C)C=CC=CC=C1C (stereo not drawn)
(A) 69.5

(Q) So what's the measured viability at 72 h, 0.0976562 uM for this one? CO[C@H]1C[C@@H]2CC[C@@H](C)[C@@](O)(O2)C(=O)C(=O)N2CCCC[C@H]2C(=O)O[C@H]([C@H](C)C[C@@H]2CC[C@@H](O)[C@H](OC)C2)CC(=O)[C@H](C)/C=C(\C)[C@@H](O)[C@@H](OC)C(=O)[C@H](C)C[C@H](C)/C=C/C=C/C=C/1C [Compound 1, rapamycin, reference compound]
(A) 24

(Q) So what's the measured viability at 72 h, 0.0976562 uM for this one? `CO[C@H]1C[C@@H]2CC[C@@H](C)[C@@](O)(O2)C(=O)C(=O)N2CCCC[C@H]2C(=O)O[C@H]([C@H](C)C[C@@H]2CC[C@@H](O)[C@H](OC)C2)CC(=O)[C@H](C)/C=C(\C)[C@@H](O)CC(=O)[C@H](C)C[C@H](C)/C=C/C=C(C)/C=C/1C`
(A) 98.8

(Q) So what's the measured viability at 72 h, 0.0976562 uM for this one? `CO[C@@H]1/C=C/C=C/[C@@H](C)C[C@@H](C)C(=O)C[C@H](O)/C(C)=C/[C@@H](C)C(=O)C[C@@H]([C@H](C)C[C@@H]2CC[C@@H](O)[C@H](OC)C2)OC(=O)[C@@H]2CCCCN2C(=O)C(=O)[C@]2(O)O[C@@H](CC[C@H]2C)C1`
(A) 74.9

(Q) So what's the measured viability at 72 h, 0.0976562 uM for this one? `CO[C@H]1C[C@@H]2CC[C@@H](C)[C@@](O)(O2)C(=O)C(=O)N2CCCC[C@H]2C(=O)O[C@H]([C@H](C)C[C@@H]2CC[C@@H](O)[C@H](OC)C2)CC(=O)[C@H](C)/C=C(\C)[C@@H](O)CC[C@H](C)/C=C/C=C/C=C/1C`
(A) 67

* * *

experiment: Cytotoxicity assay (CellTiter-Glo, 72 h), SKOV-3; format: cell-based, human; details: human, SKOV-3 cells (ovarian adenocarcinoma), conc 9.53674e-5 uM; raw replicate data; read-out: SKOV3 viability (%)
Collected viability at 72 h, 9.53674e-05 uM values appear next to each entry.
Provide the reading as a plain figure in %.

>>> meas_value("CO[C@H]1C[C@@H]2CC[C@@H](C)[C@@](O)(O2)C(=O)C(=O)N2CCCC[C@H]2C(=O)O[C@H]([C@H](C)C[C@@H]2CC[C@@H](O)[C@H](OC)C2)CC(=O)[C@H](C)/C=C(\\C)[C@@H](O)CC[C@H](C)/C=C/C=C/C=C/1C")
101
>>> meas_value("COC1CC2CCC(C)C(O)(O2)C(=O)C(=O)N2CCCCC2C(=O)OC(C(C)CC2CCC(O)C(OC)C2)CCC(C)C=C(C)C(O)C(OC)C(=O)C(C)CC(C)C=CC=CC=C1C (stereo not shown)")
102
>>> meas_value("CO[C@H]1C[C@@H]2CC[C@@H](C)[C@@](O)(O2)C(=O)C(=O)N2CCCC[C@H]2C(=O)O[C@H]([C@H](C)C[C@@H]2CC[C@@H](O)[C@H](OC)C2)CC(=O)[C@H](C)/C=C(\\C)[C@@H](O)CC(=O)[C@H](C)C[C@H](C)/C=C/C=C(C)/C=C/1C")
94.7

Next:
(Q) So what's the measured viability at 72 h, 9.53674e-05 uM for this one? CO[C@H]1C[C@@H]2CC[C@@H](C)[C@@](O)(O2)C(=O)C(=O)N2CCCC[C@H]2C(=O)O[C@H]([C@H](C)C[C@@H]2CC[C@@H](O)[C@H](OC)C2)CC(=O)[C@H](C)/C=C(\C)[C@@H](O)[C@@H](OC)C(=O)[C@H](C)C[C@H](C)/C=C/C=C/C=C/1C [Compound 1, rapamycin, reference compound]
(A) 78.7
